test system: NCI-H322M lung; assay: NCI-60 one-dose screen, 48 h (100 = growth as untreated, 0 = no growth, -100 = all killed); conditions: 10 µM unless noted
About 83,000 compounds went through this panel and 20% of them were active in at least one assay; those are over-represented in the sample as a whole.
Measured growth, listed per entry.
Provide only the numeric value, understood in %.

// below: answered compounds
COc1ccc(/C=C\c2cc(OC)c(OC)c(OC)c2)cc1OCC(=O)Nc1nc2ccccc2s1 :: 61.6
C=C(C)[C@@H]1CC[C@]2(C#N)CC[C@]3(C)[C@H](CC[C@@H]4[C@@]5(C)CCCNC(C)(C)[C@@H]5CC[C@]43C)[C@@H]12 :: 88.7
CCOC(=O)CSc1nc2sc3c(c2c(=O)n1-c1ccccc1)CCCCC3 :: 108

In the following, a different compound is considered.
Endpoint output: growth of CCOC(=O)C1=C(c2ccccc2)N=C2SC=C(c3cccc([N+](=O)[O-])c3)N2C1c1ccc(O)cc1 (centres undefined) . Value? 96.3

###

system: CAKI-1 renal; test: NCI-60 one-dose screen, 48 h (100 = growth as untreated, 0 = no growth, -100 = all killed); settings: 10 µM unless noted
About 83,000 compounds went through this panel and 20% of them were active in at least one assay; those are over-represented in the sample as a whole. Calls of active or inactive are those of the source. How the source made its calls: active means growth percent below 10; inactive means the rest.
Measured growth, listed per entry.

// below: answered compounds
CO[C@H]1CC(c2ccc[nH]2)=N[C@]12O[C@@H](C)C[C@@H]1CCCCCCCc3ccc([nH]3)[C@H]12 :: 9.32% (active)
O=c1ccc2c(ccc3ncccc32)o1 :: 90% (inactive)
O=C(CSc1nnc(-c2ccc(Cl)c(Cl)c2)n1-c1ccccc1)Nc1ccc(C(=O)/C=C/c2ccc(Cl)cc2)cc1 :: 74.2% (inactive)
CCOc1cc(\C=N/N=C(N)/C(N)=N\N=C/c2ccc(O)c(OCC)c2)ccc1O :: 94.5% (inactive)

Endpoint output: growth of COc1cc(C)cc(-c2c(-c3cc(N4CC(O)C4)nc(-c4cccnc4)n3)cnn2C)c1 . Value? 94.5% (inactive)

###

test system: OVCAR-4 ovarian; assay: NCI-60 one-dose screen, 48 h (100 = growth as untreated, 0 = no growth, -100 = all killed); settings: 10 µM unless noted
Compounds without any hit were thinned out: in the full panel of roughly 83,000, 20% have a hit.
propertyLabel: growth (%)
Provide only the numeric value, understood in %.

CCOC(=O)c1cc(C(=O)c2cc(OC)cc(OC)c2)n2ncccc12 :: 71.4
CC/C(=C(/c1ccc(Cl)cc1)c1ccc(OCCN(CC)CC)cc1)c1ccc(OC)cc1 :: 70

Endpoint output: growth of [2H]C([2H])([2H])Oc1ccc(/C=C/C(=O)/C=C(/C=C/c2ccc(OC([2H])([2H])[2H])c(OC([2H])([2H])[2H])c2OC([2H])([2H])[2H])OB(F)F)c(OC([2H])([2H])[2H])c1OC([2H])([2H])[2H] . Value? 65.2

Endpoint output: growth of CCN1CCN(C(=O)[C@]23CC[C@@H](C)[C@H](C)[C@@H]2C2=CC[C@@H]4[C@@]5(C)C/C(=C/c6ccncc6)C(=O)C(C)(C)[C@@H]5CC[C@@]4(C)[C@]2(C)CC3)CC1 . Value? 29.8

Endpoint output: growth of CC(=O)OCC(=O)O[C@@H]1C[C@]2(C(C)C)O[C@@]1(C)[C@@H]1CC[C@@H](C)[C@H]1[C@@H]2OC(=O)/C=C/c1ccccc1 . Value? 87.9

###

tested on: CAKI-1 renal; experiment: NCI-60 one-dose screen, 48 h (100 = growth as untreated, 0 = no growth, -100 = all killed); conditions: 10 µM unless noted
About 83,000 compounds went through this panel and 20% of them were active in at least one assay; those are over-represented in the sample as a whole.
Measured growth, listed per entry.
Provide only the numeric value, understood in %.

// below: answered compounds
COc1ccc(C(=O)/C=C/c2ccc(C)cc2)cc1S(N)(=O)=O :: 73.6
C=C(C)[C@@H]1CC[C@]2(COCCCNCCCN)CC[C@]3(C)[C@H](CC[C@@H]4[C@@]5(C)CC[C@H](OCCCN)C(C)(C)[C@@H]5CC[C@]43C)[C@@H]12 :: 51.9
Brc1ccc(-c2nn(-c3ccccc3)cc2-c2nn[nH]n2)s1 :: 88.1
CCCC1Cc2cc(-n3nc(C)c4c3CC(C)(C)CC4=O)cc(NC3CCC(O)CC3)c2C(=O)N1 (stereo not given) :: 30.4

In the following, a different compound is considered.
Endpoint output: growth of CCCCC/C=C/CCC(=O)N[C@H]1[C@H](Oc2c3cc4cc2Oc2ccc(cc2Cl)[C@@H](O[C@@H]2O[C@H](CO)[C@@H](O)[C@H](O)[C@H]2NC(C)=O)[C@@H]2NC(=O)[C@H](NC(=O)[C@@H]4NC(=O)[C@H]4NC(=O)[C@@H](Cc5ccc(c(Cl)c5)O3)NC(=O)[C@@H](N)c3ccc(O)c(c3)Oc3cc(O)cc4c3)c3ccc(O)c(c3)-c3c(O[C@H]4O[C@H](CO)[C@@H](O)[C@H](O)[C@@H]4O)cc(O)cc3[C@H](C(=O)O)NC2=O)O[C@H](CO)[C@H](O)[C@@H]1O . Value? 84.1

###

test system: A498 renal; assay: NCI-60 one-dose screen, 48 h (100 = growth as untreated, 0 = no growth, -100 = all killed); conditions: 10 µM unless noted
About 83,000 compounds went through this panel and 20% of them were active in at least one assay; those are over-represented in the sample as a whole. Calls of active or inactive are those of the source. How the source made its calls: active means growth percent below 10; inactive means the rest.
propertyLabel: growth

// below: answered molecules
COc1ccc(N/N=C/c2ccc3c(c2)Sc2ccccc2N3C)cc1 :: 17.5% (inactive)
N#Cc1c(-c2ccc(Cl)cc2)nc(NN=Cc2cccc(Cl)c2)nc1N1CCOCC1 :: 42.2% (inactive)
CCOC(=O)C1=CCC(n2cc(F)c(=O)[nH]c2=O)O1 (centres undefined) :: 99.9% (inactive)
CCN1C(=O)N(CC)C2C1NC(=S)N2/N=C/C=C/c1cccs1 (centres undefined) :: 18.4% (inactive)
COc1cc2c(c(OC)c1OC)CCC(c1cccc(C(=O)Nc3ccccc3Br)c1)O2 (centres undefined) :: 56.6% (inactive)

Endpoint output: growth of C=C1CC[C@@H]2[C@](C)(COC(C)=O)[C@H](OC(C)=O)CC[C@@]2(C)[C@@H]1CC(Nc1ccc(S(=O)(=O)Nc2nccc(C)n2)cc1)C1=CCOC1=O (some centres undefined) . Value? 96.8% (inactive)

Endpoint output: growth of COc1ccc2c(O)cc3c(c2c1)[C@H](CCl)CN3C(=O)c1cc2cc(NC(=O)CCN3CCOCC3)ccc2[se]1 . Value? -90.9% (active)

Endpoint output: growth of O=C1/C(=C/c2ccc(Br)cc2)COc2ccc(O)cc21 . Value? 103% (inactive)

Endpoint output: growth of COC(=O)[C@H](C)NC(=O)[C@@H]1CCCN1C(=O)CNC(=O)[C@H](C)N . Value? 93.2% (inactive)

###

tested on: NCI-H522 lung; assay: NCI-60 one-dose screen, 48 h (100 = growth as untreated, 0 = no growth, -100 = all killed); conditions: 10 µM unless noted
This is part of a sample that, as a whole, favours compounds with a hit. Of some 83,000 tested, about 20% had one in any assay.
propertyLabel: growth (%)
Provide only the numeric value, understood in %.

C#CCOc1cc(/C=N/Nc2nc(-c3ccc(OC)cc3)cs2)ccc1O :: 76.1
C(=N\Nc1nnc2n1N=C(c1ccccc1)CS2)/c1ccc(OCc2ccccc2)cc1 :: 88.1
CCOC(=O)c1c(N)sc2cc(O)ccc12 :: 80
Cn1ccnc1C(=O)/C=C/c1ccc(C(=O)Nc2c(F)c(F)c(F)c(F)c2F)cc1 :: 4.29
CCCC1Cc2cc(-n3nc(C)c4c3CC(C)(C)CC4=O)cc(NC3CCC(O)CC3)c2C(=O)N1 (stereo not given) :: 39.1
COc1cc2cc(Oc3ccc(NC(=O)Nc4ccc(F)c(C(F)(F)F)c4)cc3)c(C)nc2cc1OCCN1CCCCC1 :: -66.6

Endpoint output: growth of COC(=O)c1c(C)nc(C)c2c1C(=O)C(Br)=C(NCCCCO)C2=O . Value? 71.1

###

test system: SK-MEL-2 melanoma; assay: NCI-60 one-dose screen, 48 h (100 = growth as untreated, 0 = no growth, -100 = all killed); settings: 10 µM unless noted
Compounds without any hit were thinned out: in the full panel of roughly 83,000, 20% have a hit.
propertyLabel: growth (%)
Provide only the numeric value, understood in %.

O=C1/C(=C/c2ccc(-c3ccc(Cl)cc3)o2)SC(=S)N1CCc1ccc(O)cc1 :: 58.5
CCN(CC)c1ccc(/C=N/NC(=O)c2ccccc2Nc2ccnc(C(F)(F)F)c2)c(O)c1 :: 94.1
CN1C(=O)N(C)C2C1NN=c1s/c(=C\c3ccccc3F)c(=O)n12 (stereo not given) :: 42.5
CCN1C(=O)N(CC)C2C1NN=c1s/c(=C3\C(=O)N(C)c4ccccc43)c(=O)n12 (stereo not given) :: 60.3

In the following, a different compound is considered.
Endpoint output: growth of COC(=O)[C@H]1Cc2c([nH]c3ccccc23)[C@H](c2ccc3c(c2)OCO3)N1 . Value? 113

Values from PubChem BioAssay (NCI)
